assay: small-molecule binders of probe aLefty1, primary screen, biochemical, small-molecule microarray, 635/667 nm fluorescence (AID 1153); settings: higher = more signal;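 also: score merges spot fluorescence with signal-to-noise ratio from the scanned slide images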
Each entry below carries its reported composite z-score.
measuredQuantity: composite z-score

molecule	measuredQuantity	readoutValue
C=CCN1C(=O)[C@@]2(O[C@@H](CCn3cc([C@H](O)c4ccccc4)nn3)[C@H]([Si](C)(C)c3ccc(OC)cc3)[C@H]2C)c2cc(N3CCC3=O)ccc21	composite z-score	-0.189
CCCCCCc1nc(C2CC2)cc2c1[Si](C(C)C)(C(C)C)OC2	composite z-score	-0.0559
Cc1ccc(S[C@]2(C(=O)O)CC(=O)N(Cc3ccccc3Cl)[C@@H]2c2ccc(CO)cc2I)cc1	composite z-score	-0.814
CC(CO)N1C(=O)[C@@H]2[C@H]3C(=O)OCC=C[C@H]3OC23C=CCN(CCN2CCOCC2)C(=O)[C@@H]13 (some centres undefined)	composite z-score	-0.482
COc1ccc([Si](C)(C)[C@H]2[C@H](CCn3cc([C@H](O)c4ccccc4)nn3)O[C@@]3(C(=O)N(Cc4ccc(N5C(=O)c6cccc7cccc5c67)cc4)c4ccccc43)[C@@H]2C)cc1	composite z-score	0.0091
NCCCCCNC(=O)[C@@H]1C[C@@H]2C(=O)NCC(=O)N2[C@@H]1c1cccc(OCCO)c1	composite z-score	0.165
COc1ccc(-c2cc3c(c(CCc4ccccc4)n2)[Si](C(C)C)(C(C)C)OC3)cn1	composite z-score	-0.196
COC(=O)CCCCCCC(=O)Nc1ccc(NC(=O)CCCC[P+](c2ccccc2)(c2ccccc2)c2ccccc2)cc1	composite z-score	-0.0601
COC(=O)Cn1c(C(=O)N(C)C)cc2c1C[C@H]1CN(C(=O)c3ccccc3)[C@@](Cc3ccc(F)cc3)(C(=O)OC)[C@@H]21	composite z-score	0.523
NC(N)=NCCCn1cc(CNC(=O)[C@@H](N)Cc2ccccc2)nn1	composite z-score	-0.0171
O=c1n(-c2ccccc2)c(=O)n2n1CC(COc1ccccc1)=C([C@H](O)CCc1ccccc1)[C@@H]2CO	composite z-score	-0.315
C=CC1c2cc(O)c(OC)cc2CCN1Cc1cc2c(cc1Br)OCO2 (centres undefined)	composite z-score	0.274
CN(C)C(=O)[C@@]1(Cc2ccccc2CN=[N+]=[N-])N=C(c2ccc(OCCCO)cc2)O[C@H]1c1ccccc1CN=[N+]=[N-]	composite z-score	0.315
O=C1C[C@@](C(=O)NCCN2CCOCC2)(c2ccc([N+](=O)[O-])cc2)[C@@H](c2ccc(CO)cc2I)N1C1CCCCC1	composite z-score	0.0688
COCCOC(=O)N1C(=O)[C@@]2(c3cc(C#CCNC(N)=O)ccc31)[C@H](C(=O)N1CCc3cc(OC)c(OC)cc3C1)[C@H]1C(=O)O[C@H](c3ccccc3)[C@H](c3ccccc3)N1[C@@H]2c1ccccc1OCCO	composite z-score	0.479
COC(=O)c1nc2oc1CC[C@@H](CO)NC(=O)N(C)Cc1cnnn1C[C@H](Cc1ccccc1)NC2=O	composite z-score	-0.101
[N-]=[N+]=NCc1ccccc1[C@H]1OC(c2ccc(OCCCO)cc2)=N[C@@]1(CCS(=O)(=O)c1ccccc1)C(=O)N1CCCCC1	composite z-score	0.666
COc1cc(OC)c(C(O)C2C=CC3C(=O)N(C)C(=O)C3N2NC(=O)OC(C)(C)C)cc1Br (centres undefined)	composite z-score	0.524
[N-]=[N+]=NCc1ccccc1C[C@@]1(C(=O)N2CCOCC2)N=C(c2ccc(OCCCO)cc2)O[C@@H]1c1ccccc1	composite z-score	0.276
COC(=O)[C@@]1(Cc2ccc(OC)cc2)[C@H]2c3cc(C(=O)N4CCCC4)n(Cc4c(-c5ccccc5)noc4C)c3C[C@H]2CN1C(=O)c1ccccc1	composite z-score	0.956
O=C1C=C(c2ccccc2)C(=O)c2ccc([C@H]3Oc4ccccc4S(=O)(=O)N4CCC[C@@H]34)cc21	composite z-score	-0.08
CC(C)(C)OC(=O)CC[C@]1(C(=O)NCC(O)CO)N=C(c2ccc(OCCCO)cc2)O[C@H]1c1ccccc1 (some centres undefined)	composite z-score	0.125
[N-]=[N+]=NCc1ccccc1C[C@@]1(C(=O)NCc2ccccc2)N=C(c2ccc(OCCCO)cc2)O[C@@H]1c1ccccc1N=[N+]=[N-]	composite z-score	-0.221
C=C(/C(=C/C[C@@H](OC(C)=O)c1cccc(OCCO)c1)c1cc(C(=O)OC)ccc1OC)C(C)C	composite z-score	0.0962
NC(=O)NCC#Cc1ccc2c(c1)[C@]1(C(=O)N2)[C@H](C(=O)NC[C@H](O)c2ccccc2)[C@H]2C(=O)O[C@H](c3ccccc3)[C@H](c3ccccc3)N2[C@@H]1c1ccc(OCCO)cc1	composite z-score	0.157
COCCOC(=O)N1C(=O)[C@@]2(c3cc(C#Cc4ccc(OC)cc4)ccc31)[C@H](C(=O)Nc1nc3ccccc3s1)[C@H]1C(=O)O[C@H](c3ccccc3)[C@H](c3ccccc3)N1[C@@H]2c1ccc(O)cc1	composite z-score	0.703
O=C1N(Cc2ccccc2)Cc2ccccc2[C@@H]2OC(c3ccc(OCCCO)cc3)=N[C@]12CCS(=O)(=O)c1ccccc1	composite z-score	0.547
C=C(COC)/C(=C/C[C@H](OC(=O)c1ccncc1)c1ccccc1OCCO)c1cnc2ccccc2c1	composite z-score	0.401
O=C1NC(=O)C2C1C=CC(C(O)c1cccc3ccccc13)N2Nc1ccc(Cl)cc1Cl (centres undefined)	composite z-score	0.505

----------
Each entry below carries its reported composite z-score.
tested on: Noggin (protein binding on small-molecule microarray); assay: Noggin binders on small-molecule microarray, primary screen, biochemical, 635/667 nm fluorescence (AID 1095); conditions: 635 nm fluorescence, higher = more signal;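 also: score merges 667 nm feature fluorescence with signal to noise over triplicate slides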

molecule	composite z-score
COC(=O)[C@@]1(Cc2ccc(F)cc2)[C@H]2c3cc(C(=O)N4CCCC4)n(CCN4CNCC4=O)c3C[C@H]2CN1C(=O)c1ccccc1	0.46
CCOC(=O)C1=CC[C@@H](c2cccc(Cl)c2)N(S(=O)(=O)c2ccc(C)cc2)C1	0.0745
CC1=C[C@@]2(CO)C(=O)[C@]3(CO3)[C@@H]1[C@H]1[C@]2(C)C=C(CO)C(=O)[C@]12CO2	0.177
C=CCC(OC(C)=O)[C@@H]1[C@@H](N(Cc2ccc(-c3cccc(C(F)(F)F)c3)o2)C(=O)c2ccc(-c3ccccc3)cc2)c2cc(OCCCO)ccc2N1C(=O)c1ccc2ccccc2n1 (some centres undefined)	-0.0955
C=C(C)C1CCC(C(O)C2C=CC3C(=O)N(C)C(=O)C3N2N2CCCCC2)CC1 (centres undefined)	0.758
CCCCCCCCCCC(O)C1C=CC2C(=O)N(C)C(=O)C2N1Nc1ccc([N+](=O)[O-])cc1[N+](=O)[O-] (centres undefined)	-0.894
C=CC[C@@]1(C(=O)N2CCOCC2)N=C(c2ccc(OCCCO)cc2)O[C@@H]1c1ccccc1CN=[N+]=[N-]	0.355
COc1ccc([Si](C)(C)[C@H]2[C@H](CC(=O)N(CCO)Cc3ccccc3)O[C@@]3(C(=O)N(Cc4cccc(N5CCOC5=O)c4)c4ccccc43)[C@@H]2C)cc1	0.722
C=C(COC)C(=O)CC[C@@H](OC(=O)c1cccnc1)c1ccc(OCCO)cc1	0.992

----------
assay: MM1S cell viability effects, profiling panel, calcein-AM fluorescence, 48 h, basal (AID 1165); settings: higher = more signal;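 also: viability of MM1S multiple myeloma cells under basal unstimulated conditions; test concentration not given here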
Each entry below carries its reported z-score.
measuredQuantity: z-score

compound	readoutValue
Cc1ccccc1C(O)C1C=CC2C(=O)N(C)C(=O)C2N1N(c1ccccc1)c1ccccc1 (stereo not given)	-0.967
CCOC(=O)C1=CC[C@@H](c2cccc(Cl)c2)N(S(=O)(=O)c2ccc(C)cc2)C1	-1.14
CCOC(=O)C1CCCCN1 (stereo not given)	0.481
C#CCN([C@@H](Cc1ccc(O)cc1)C(=O)OC)[C@@H](/C=C/C1CC1)[C@H](O)Cc1ccccc1	-3.28
CN(C)CCCNC(=O)[C@@H]1c2ccccc2C(=O)N(Cc2ccccc2Cl)[C@H]1c1ccc(CO)cc1	-0.147

----------
test: FRG1 promoter luciferase signal modulators, primary screen, FRG1 inhibition for FSHD, cell-based, C2C12 myotubes, firefly/Renilla luciferase, luminescence (AID 1084); settings: higher = more signal, called active from +8 up or from −8 down

compound	z-score
CCCCO[C@H]1C[C@H]2C(I)=C[C@@H]1C(=O)[C@]21CO1	1.43
C=CCC(OC(C)=O)[C@@H]1[C@@H](N(Cc2ccc(-c3cccc(C(F)(F)F)c3)o2)C(=O)c2ccc(C)cc2)c2cc(OCCCO)ccc2N1C(=O)c1ccc2ccccc2c1 (stereo partly drawn)	0.0925
CCCCC=C[C@@H](NC(=O)c1ccc(-c2ccccc2)cc1)c1ccccc1	0.61
CCCCC(=C=CC[C@@H](O)c1ccccc1OCCO)C[C@@H](O)COCc1ccccc1	-2.9
C=CCN1C(=O)[C@@]2(CCS(=O)(=O)c3ccccc3)N=C(c3ccc(OCCCO)cc3)O[C@H]2c2ccccc21	-3.77
O=C(N1CCCCC1)[C@@]1(CCS(=O)(=O)c2ccccc2)COC(c2ccc(OCCCO)cc2)=N1	-3.51
C=CCOC(=O)[C@H]1[C@@H]2C(=O)O[C@@H](c3ccccc3)[C@@H](c3ccccc3)N2[C@@H](c2ccc(OCCOC(=O)[C@H]3C[C@H]4C(=O)N[C@@H](CC(C)C)C(=O)N4[C@H]3c3cccc(OCCO)c3)cc2)[C@]12C(=O)Nc1ccc(I)cc12	0.842
Cc1cc(C)c(C(O)C2C=CC3C(=O)N(c4ccccc4)C(=O)C3N2Nc2ccc(C(C)C)cc2)c(C)c1 (stereo not drawn)	1.44
CCC[C@@H]1C[C@@]1(CCC)[C@@H](NC(=O)OCc1ccccc1)c1ccc(-c2ccccc2)cc1	-1.93
CC(C)N1C(=O)C[C@@](C(=O)NCCCN(C)C)(c2ccc([N+](=O)[O-])cc2)[C@H]1c1ccc(CO)cc1	-0.0382
CC1=C([C@H](O)CCc2ccccc2)[C@H](CO)[C@@H]2C(=O)N(C)C(=O)[C@@H]2C1	-0.445
CCOC(=O)c1ccc(NC(=O)O[C@H]2[C@H](OC(=O)Nc3ccc4c(c3)OCO4)[C@H](OC(=O)Nc3ccc4c(c3)OCO4)[C@@H](OC)O[C@@H]2CO)cc1	1.08
COCCOC(=O)N1C(=O)[C@@]2(c3cc(C#CCC(C(=O)OC)C(=O)OC)ccc31)[C@H](C(=O)N1CCc3cc(OC)c(OC)cc3C1)[C@H]1C(=O)O[C@H](c3ccccc3)[C@H](c3ccccc3)N1[C@@H]2c1ccc(OCCO)cc1	1.08
COCCCNC(=O)[C@@]1(Cc2ccccc2CN=[N+]=[N-])N=C(c2ccc(OCCCO)cc2)O[C@H]1c1ccccc1	-2.01
COc1cc2c(cc1O)C(C)N(Cc1ccc([N+](=O)[O-])o1)CC2 (stereo not drawn)	0.11
C=C[C@@H](OC)[C@H](OC(=O)Nc1ccc(SC)cc1)c1ccc(O)c(F)c1	3.87
CCOC(=O)c1ccc(NC(=O)O[C@H]2[C@H](OC(=O)Nc3ccc4c(c3)OCO4)[C@@H](OC(=O)Nc3ccc4c(c3)OCO4)[C@@H](OC)O[C@@H]2CO)cc1	6.39
C=CC[C@@]1(C(=O)N2CCOCC2)N=C(c2ccc(OCCCO)cc2)O[C@@H]1c1ccccc1CN=[N+]=[N-]	-1.21
C#CCN([C@@H](Cc1ccc(O)cc1)C(=O)OC)[C@@H](/C=C/C1CC1)[C@H](O)Cc1ccccc1	-3.55
CCCNC(=O)[C@@]1(c2ccc([N+](=O)[O-])cc2)CC(=O)N(C2CCCCC2)[C@@H]1c1ccc(CO)cc1	-1.31
CN(C)C(=O)C1N=C(c2ccc(OCCCO)cc2)N(c2ccccc2)O1 (stereo not drawn)	4.85
CC(C)(C)OC(=O)CC[C@@]1(C(=O)NCc2ccccc2)N=C(c2ccc(OCCCO)cc2)O[C@@H]1c1ccccc1N=[N+]=[N-]	1.16
COC(=O)[C@@]1(Cc2ccc(OC)cc2)[C@H]2c3cc(C(=O)N4CCCC4)n(Cc4cccc5ccccc45)c3C[C@H]2CN1C(=O)c1ccccc1	-0.404
C=CCOC(=O)[C@H]1[C@@H]2C(=O)O[C@@H](c3ccccc3)[C@@H](c3ccccc3)N2[C@@H](c2ccc(OCCOC(=O)[C@@H]3C[C@@H]4C(=O)N5CCC[C@H]5C(=O)N4[C@@H]3c3ccc(O)cc3)cc2)[C@]12C(=O)Nc1ccc(I)cc12	0.308
C=CCOC(=O)[C@H]1[C@@H]2C(=O)O[C@@H](c3ccccc3)[C@@H](c3ccccc3)N2[C@@H](c2ccc(OCCOC(=O)[C@H]3C[C@H]4C(=O)N[C@@H](CCCCNC(C)=O)C(=O)N4[C@H]3c3ccc(O)cc3)cc2)[C@]12C(=O)Nc1ccccc12	-1.15
CCCCCCc1nc(C2CC2)cc2c1[Si](C(C)C)(C(C)C)OC2	1.19
CCCC[C@@H]1C[C@H]1[C@@H](NC(=O)c1cccs1)c1ccc(C(F)(F)F)cc1	-0.878
[N-]=[N+]=Nc1ccccc1[C@@H]1OC(c2ccc(OCCCO)cc2)=N[C@]1(Cc1ccccc1)C(=O)NCC(O)CO (stereo partly drawn)	-0.992

These entries and their values trace back to PubChem BioAssay.
